Reference source: patent US20170081400A1

Biological target: T1, human TL1A extracellular domain with N-terminal HIS and FLAG tag (human, UniProt O95150 72-251)
T1 construct: whole entry named. ~70 kDa fraction purified by gel filtration
T1 sequence: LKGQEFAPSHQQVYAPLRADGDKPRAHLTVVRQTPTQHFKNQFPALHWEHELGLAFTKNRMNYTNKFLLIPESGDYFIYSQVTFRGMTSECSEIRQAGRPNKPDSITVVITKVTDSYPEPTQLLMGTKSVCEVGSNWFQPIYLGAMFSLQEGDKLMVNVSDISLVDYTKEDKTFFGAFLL
Assay: SPR run 3; supernatant on Protein A; TL1A 10 ug/mL; timepoint 590
parameterMeasured: TL1A Binding Level (Late) (RU)
Answer with a number only, understood to be in RU.

**Query** Which TL1A Binding Level (Late) is reported for this binder? 320-269 (antibody, human IgG1, name in Kabat numbering, V domains shown, human IgG1, lambda) VH: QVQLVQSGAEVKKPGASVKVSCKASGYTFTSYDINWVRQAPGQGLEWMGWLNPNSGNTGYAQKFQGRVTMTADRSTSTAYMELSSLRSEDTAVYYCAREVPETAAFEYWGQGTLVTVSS VL: QSVLTQPPSVSGAPGQRVTISCTSSSSDIGAQLGVHWYQQLPGTAPKLLIEGYYNRPSGVPDRFSGSKSGTSASLTITGLLPEDEGDYYCQSYDGTLSALFGGGTKLTVLG
**Result** 93

**Query** Which TL1A Binding Level (Late) is reported for this binder? 320-292 (antibody, human IgG1, name in Kabat numbering, V domains shown, human IgG1, lambda) VH: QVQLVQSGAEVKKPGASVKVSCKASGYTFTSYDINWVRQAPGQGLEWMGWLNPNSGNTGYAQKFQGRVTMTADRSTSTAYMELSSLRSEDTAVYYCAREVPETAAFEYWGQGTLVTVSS VL: QSVLTQPPSVSGAPGQRVTISCTSSSSDIGAGLYVHWYQQLPGTAPKLLIEGYYNRPSGVPDRFSGSKSGTSASLTITGLLPEDEGDYYCQSYDGTLSALFGGGTKLTVLG
**Result** 94

**Query** Which TL1A Binding Level (Late) is reported for this binder? 320-279 (antibody, human IgG1, name in Kabat numbering, V domains shown, human IgG1, lambda) VH: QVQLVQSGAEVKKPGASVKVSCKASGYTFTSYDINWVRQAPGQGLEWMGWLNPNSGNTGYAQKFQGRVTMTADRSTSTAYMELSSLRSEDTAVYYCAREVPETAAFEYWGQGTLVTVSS VL: QSVLTQPPSVSGAPGQRVTISCTSSSSDIGAGDGVHWYQQLPGTAPKLLIEGYYNRPSGVPDRFSGSKSGTSASLTITGLLPEDEGDYYCQSYDGTLSALFGGGTKLTVLG
**Result** 128

**Query** Which TL1A Binding Level (Late) is reported for this binder? 320-266 (antibody, human IgG1, name in Kabat numbering, V domains shown, human IgG1, lambda) VH: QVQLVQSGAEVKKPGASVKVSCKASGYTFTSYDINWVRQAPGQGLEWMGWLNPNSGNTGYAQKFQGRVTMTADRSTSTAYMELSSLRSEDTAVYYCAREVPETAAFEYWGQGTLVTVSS VL: QSVLTQPPSVSGAPGQRVTISCTSSSSDIGYGLGVHWYQQLPGTAPKLLIEGYYNRPSGVPDRFSGSKSGTSASLTITGLLPEDEGDYYCQSYDGTLSALFGGGTKLTVLG
**Result** 192

**Query** Which TL1A Binding Level (Late) is reported for this binder? 320-262 (antibody, human IgG1, name in Kabat numbering, V domains shown, human IgG1, lambda) VH: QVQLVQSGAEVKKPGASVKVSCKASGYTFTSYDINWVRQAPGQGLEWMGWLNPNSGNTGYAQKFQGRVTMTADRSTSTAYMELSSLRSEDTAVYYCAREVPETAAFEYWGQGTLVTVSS VL: QSVLTQPPSVSGAPGQRVTISCTSSSSDIGHGLGVHWYQQLPGTAPKLLIEGYYNRPSGVPDRFSGSKSGTSASLTITGLLPEDEGDYYCQSYDGTLSALFGGGTKLTVLG
**Result** 190
